- Tested On: T1, KDR domain 1 (D1), His-tagged
- T1 construct: first IgG-like domain (D1) of VEGFR2/KDR, amplified from full-length KDR cDNA; Cloned into the BamHI/EcoRI site of pET28a; also called KDR D1; KDR D1 (His-tagged)
- T1 chain: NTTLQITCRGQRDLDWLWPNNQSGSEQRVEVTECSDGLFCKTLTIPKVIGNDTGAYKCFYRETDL
- Measurement Notes: SPR; KDR D1 (His-tagged) immobilised on CM5 chip by amine coupling; HBD injected at 50 μL/min for 1.8 min; HBS-EP buffer (0.01 M HEPES pH 7.4, 0.15 M NaCl, 3 mM EDTA, 0.0005% P20)
- Cond: both partners purified
Measured Attribute: Kd

Q. // Kd lookup, key: PCGPCSERRKHLFVQDPQTCKCSCKNTDSRCKARQLELNERTCRCDKPRR (domain or fragment, human, Cloned into the BamHI/EcoRI site of pET28a; PDB 2VGH is the HBD structure used for docking; also called VEGF165-HBD; VEGF165 HBD) [VEGF165 heparin-binding domain (HBD), wild type]
A. ~100 nM

The reported measurements were obtained from paper PMC11128890.
